TESTED_TARGET: KRAS Q61H (Homo sapiens (Human), UniProt P01116+P62937, Q61H)
Sequence (P01116-2 other isoform, or with tags, fused parts or gaps Q61H): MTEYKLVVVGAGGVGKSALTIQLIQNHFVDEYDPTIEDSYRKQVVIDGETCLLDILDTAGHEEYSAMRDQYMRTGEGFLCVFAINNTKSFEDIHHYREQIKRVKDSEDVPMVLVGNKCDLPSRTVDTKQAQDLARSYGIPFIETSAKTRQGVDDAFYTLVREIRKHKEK
Sequence (P62937 whole entry): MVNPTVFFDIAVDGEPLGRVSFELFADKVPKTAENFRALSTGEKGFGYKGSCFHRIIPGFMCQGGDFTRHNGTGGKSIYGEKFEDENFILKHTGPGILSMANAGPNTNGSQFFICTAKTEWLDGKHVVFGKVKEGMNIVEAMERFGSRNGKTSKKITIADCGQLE
EXPERIMENT_SUMMARY: Ras-Raf (BRAF RBD) disruption / FRET / MOA assay, KRAS Q61H
Type: biochemical
MEASUREMENT_PARAMETERS: Ras-Raf disruption/FRET/MOA assay; class symbols; read-out: KRAS Q61H FRET data IC50
Assignment: determine reported IC50 for the given molecules.

[
  {
    "MOLECULE": "C=CC(=O)N1CCN(C(=O)N(C)[C@H](C(=O)N[C@H]2Cc3nc(cs3)-c3ccc4c(c3)c(c(-c3cccnc3[C@H](C)OC)n4CC)CC(C)(C)COC(=O)[C@@H]3CCCN(N3)C2=O)C(C)C)CC1 (atropisomer, axis not shown) [Example A492]",
    "IC50": "10 to 100 nM"
  },
  {
    "MOLECULE": "C=CC(=O)N1CC[C@H](C(=O)N(C)[C@H](C(=O)N[C@H]2Cc3cccc(c3)-c3ccc4c(c3)c(c(-c3cccnc3[C@H](C)OC)n4CC3COC3)CC(C)(C)COC(=O)[C@@H]3CCCN(N3)C2=O)C(C)C)C1 (atropisomer, axis not shown) [Example A481]",
    "IC50": "1000 to 10000 nM"
  },
  {
    "MOLECULE": "CO[C@@H](C)c1ncccc1-c1c2c3cc(ccc3n1CC(F)(F)F)-c1nc(nn1C)C[C@H](NC(=O)[C@H](C(C)C)N(C)C(=O)C1(F)CCN(C(=O)C#CC(C)(C)N(C)C)CC1)C(=O)N1CCC[C@H](N1)C(=O)OCC(C)(C)C2 (atropisomer, axis not shown) [Example A577]",
    "IC50": "10 to 100 nM"
  }
]

[in] Tell us which IC50 value is on record for C=CC(=O)N1CC[C@H](N(C)C(=O)N(C)[C@H](C(=O)N[C@H]2Cc3nc(cs3)-c3ccc4c(c3)c(c(-c3cccnc3[C@H](C)OC)n4CC)CC(C)(C)COC(=O)[C@@H]3CCCN(N3)C2=O)C(C)C)C1 (atropisomer, axis not shown) [Example A728]
[out] 100 to 1000 nM

* * *

TESTED_TARGET: KRAS G13D (Homo sapiens (Human), UniProt P01116+P62937, G13D)
Sequence (P01116-2 other isoform, or with tags, fused parts or gaps G13D): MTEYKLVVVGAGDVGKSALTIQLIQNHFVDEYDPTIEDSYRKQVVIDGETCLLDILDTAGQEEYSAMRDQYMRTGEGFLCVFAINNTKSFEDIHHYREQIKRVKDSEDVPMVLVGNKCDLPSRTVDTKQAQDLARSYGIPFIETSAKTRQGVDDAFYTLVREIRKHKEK
Sequence (P62937 whole entry): as the sequence (P62937 whole entry) above
EXPERIMENT_SUMMARY: Ras-Raf (BRAF RBD) disruption / FRET / MOA assay, KRAS G13D
Assay type: biochemical
MEASUREMENT_PARAMETERS: read-out: IC50* KRAS G13D FRET data
Experimental: The purpose of this biochemical assay is to measure the ability of test compounds to facilitate ternary complex formation between a nucleotide-loaded Ras isoform and cyclophilin A; the resulting ternary complex disrupts binding to a BRAF^RBD construct, inhibiting Ras signaling through a RAF effector. Compound is present in plate wells as a 10-point 3-fold dilution series starting at a final concentration of 30 μM. […]
MEASUREMENT_TYPE: IC50

Observe how each entry below is paired with its result.
[
  {
    "COMPOUND": "C/C=C(\\C)S(=O)(=O)N1CC[C@H](C(=O)N(C)[C@H](C(=O)N[C@H]2Cc3cc(O)cc(c3)-c3ccc4c(c3)c(c(-c3cccnc3[C@H](C)OC)n4CC)CC(C)(C)COC(=O)[C@@H]3CCCN(N3)C2=O)C(C)C)C1 (atropisomer, axis not shown)",
    "READOUT_VALUE": "0.1 to 1 µM"
  },
  {
    "COMPOUND": "C=CC(=O)N1CC[C@H](C(=O)N(C)[C@H](C(=O)N[C@H]2Cc3cccc(c3)-c3ccc4c(c3)c(c(-c3cc(C5=CCN(C)CC5)cnc3[C@H](C)OC)n4CC)CC(C)(C)COC(=O)[C@@H]3CCCN(N3)C2=O)C(C)C)C1 (atropisomer, axis not shown) [Example A513]",
    "READOUT_VALUE": "1 to 10 µM"
  },
  {
    "COMPOUND": "CCn1c(-c2cccnc2[C@H](C)OC)c2c3cc(ccc31)-c1cccc(c1)C[C@H](NC(=O)[C@@H](COC1CN(C(=O)C#CC(C)(C)O)C1)C(C)C)C(=O)N1CCC[C@H](N1)C(=O)OCC(C)(C)C2 (atropisomer, axis not shown)",
    "READOUT_VALUE": "> 10 µM"
  },
  {
    "COMPOUND": "CCn1c(-c2cccnc2[C@H](C)OC)c2c3cc(ccc31)-c1csc(n1)C[C@H](NC(=O)CCO[C@@H]1CCN(C(=O)C#CC(C)(C)N3CCC3)C1)C(=O)N1CCC[C@H](N1)C(=O)OCC(C)(C)C2 (atropisomer, axis not shown)",
    "READOUT_VALUE": "1 to 10 µM"
  },
  {
    "COMPOUND": "C=CC(=O)N1CC[C@H](C(=O)N(C)[C@H](C(=O)N[C@H]2Cc3cccc(c3)-c3ccc4c(c3)c(c(-c3cccnc3[C@H](C)OC)n4CC)CC(C)(C)COC(=O)[C@@H]3CCCN(N3)C2=O)[C@@H](C)C(F)(F)F)C1 (atropisomer, axis not shown)",
    "READOUT_VALUE": "1 to 10 µM"
  }
]

Give IC50 for all compounds that follow.
1. C=CC(=O)N(C)CCC(=O)N(C)[C@H](C(=O)N[C@H]1Cc2cc(O)cc(c2)-c2ccc3c(c2)c(c(-c2cccnc2COC)n3CC)CC(C)(C)COC(=O)[C@@H]2CCCN(N2)C1=O)C(C)C
2. C=CC(=O)N(C)CC1CN(C(=O)N(C)[C@H](C(=O)N[C@H]2Cc3nc(cs3)-c3ccc4c(c3)c(c(-c3cccnc3[C@H](C)OC)n4CC)CC(C)(C)COC(=O)[C@@H]3CCCN(N3)C2=O)C(C)C)C1 (atropisomer, axis not shown)
3. CCn1c(-c2cccnc2)c2c3cc(ccc31)-c1cccc(c1)C[C@H](NC(=O)[C@H](C(C)C)N(C)C(=O)[C@H]1CCN(C(=O)C#CCN(C)C)C1)C(=O)N1CCC[C@H](N1)C(=O)OCC(C)(C)C2

[out]
1 to 10 µM
0.1 to 1 µM
1 to 10 µM
